fold induction at 10 µM values for the molecules below.
System: differentiated 3T3-L1 mouse adipocyte cells
Assay Explanation: Adipocyte glucose consumption in differentiated 3T3-L1 mouse adipocyte cells (loss of glucose from medium, colorimetric)
Type: cell-based
Condition Description: compound 10 μM, 22 to 24 hours, differentiated 3T3-L1 adipocytes, compound/DMSO, read-out: Glucose consumption (fold change) Mean
Output spec: single numeric token, no unit.

Known fold induction at 10 µM results, listed for orientation:
| Molecule | fold induction at 10 µM |
| --- | --- |
| CCCCC1CCCc2c(n(Cc3cccc(C#N)c3)c3c(C(=O)NCC(=O)O)cccc23)C1 (stereo not shown) | 1.2 |
| CCCCCCC1CCCc2c(n(Cc3ccccc3C(N)=O)c3c(C(=O)O)cccc23)C1 (stereo not shown) | 0.97 |
| CCCC1CCCc2c1c1cccc(C(=O)O)c1n2Cc1cccc(C(N)=O)c1 (stereo not shown) | 1.04 |

[Q] Can you share its fold induction at 10 µM? I mean this molecule: CCCCCCC1CCCc2c(n(Cc3ccc(C(N)=O)cc3)c3c(C(=O)O)cccc23)C1 (stereo not shown)
[A] 1.05

[Q] Proceed to CCCCCCC1CCCc2c(n(Cc3ccc4ncoc4c3)c3c(C(=O)O)cccc23)C1 (stereo not shown)
[A] 1.17

[Q] Proceed to CCCCCC1CCc2c(c3cccc(C(=O)O)c3n2Cc2cccc(C(N)=O)c2)C1 (stereo not shown)
[A] 1.08

[Q] Proceed to CCCCCOC1CCCc2c1n(Cc1cccc(C(N)=O)c1)c1c(C(=O)O)cccc21 (stereo not shown)
[A] 1.09

[Q] Proceed to CCCCC1CCCc2c1n(Cc1cccc(C#N)c1)c1c(C(=O)O)cccc21 (stereo not shown)
[A] 1.14

[Q] Proceed to CCCCCCC1CCCc2c(n(Cc3cccc(Cl)c3)c3c(C(=O)O)cccc23)C1 (stereo not shown)
[A] 1.18

[Q] Proceed to CCCCC1CCCc2c(n(Cc3cccc(C#N)c3)c3c(C(=O)NCCO)cccc23)C1 (stereo not shown)
[A] 1.08
